These measurements were taken from ChEMBL document CHEMBL1201862.

test system: SW-620; assay: NCI tumour cell line growth inhibition, 48 h
Calls of active or inactive are those of the source. Rule as the data show it: active = GI50 up to about 1.1 µM and inactive = higher.
Measured parameter: GI50

// Input: CC(=O)O/C=C1/C[C@H]2[C@@H]3CCC4CC(C(C)=O)CC[C@]4(C)[C@H]3CC[C@]2(C)C1=O (some centres not stated) . Output its GI50 only.
> 100 µM (inactive)

// Input: O=c1[nH]c2ccccc2c(=O)n1/N=C/c1ccc(O)cc1 . Output its GI50 only.
> 100 µM (inactive)

// Input: O=C(O)CCCCn1ccc(=O)[nH]c1=O . Output its GI50 only.
> 100 µM (inactive)

// Input: Cn1c(=O)c2c(nc3sc4ncccc4c(=O)n32)n(C)c1=O . Output its GI50 only.
> 100 µM (inactive)

// Input: CC(O)C1OC(n2ccc(=O)[nH]c2=O)CC1n1cncn1 (configuration not stated) . Output its GI50 only.
> 100 µM (inactive)

// Input: C/C(=N\Nc1nc2ccccc2s1)c1cccc[n+]1[O-] . Output its GI50 only.
32.7 µM (inactive)

// Input: C/C(=N\NS(=O)(=O)c1ccc(C)cc1)C(CN1CCCCC1)C(c1ccccc1)c1c(O)c2ccccc2oc1=O (configuration not stated) . Output its GI50 only.
70.6 µM (inactive)

====

system: UACC-62; assay: NCI tumour cell line growth inhibition, 48 h
Active and inactive are the calls of the source. Cut-off read from the data, not from the text of the source: active = GI50 up to about 1.1 µM and inactive = higher.
Measured parameter: GI50

// Input: CC1(C)CC(=O)C(CCC(=O)/C=C/c2ccccc2)C(=O)C1 . Output its GI50 only.
> 100 µM (inactive)

// Input: COc1cc2cc(C(=O)N3CC(CCl)c4ccc([N+](=O)[O-])cc43)[nH]c2c(OC)c1OC (centres undefined) . Output its GI50 only.
> 100 µM (inactive)

// Input: O=C(NC1CCN(Cc2ccccc2)CC1)c1ccc(I)cc1 . Output its GI50 only.
59.4 µM (inactive)

// Input: Clc1nc(NC23CC4CC(CC(C4)C2)C3)nc(NC23CC4CC(CC(C4)C2)C3)n1 . Output its GI50 only.
> 100 µM (inactive)

// Input: COc1ccc(Nc2nc3cc(C(F)(F)F)ccc3nc2-c2ccccc2)cc1OC . Output its GI50 only.
27.4 µM (inactive)

// Input: C/C(=C\c1ccccc1)C(=O)CCN1CCOCC1 . Output its GI50 only.
17.6 µM (inactive)

// Input: O=c1c2cc(I)ccc2nc(SCc2nncs2)n1Cc1ccccc1 . Output its GI50 only.
13.6 µM (inactive)

// Input: C1=C(c2ccccc2)SC=C(c2ccccc2)S1 . Output its GI50 only.
35.9 µM (inactive)

// Input: O=C(c1ccccc1)c1c(C(F)(F)F)[n+]([O-])c2ccccc2[n+]1[O-] . Output its GI50 only.
1.68 µM (inactive)

// Input: CC(C)(C)N(Cc1ccc2c(c1)OCO2)C(=O)/C=C\Sc1ccccc1 . Output its GI50 only.
> 100 µM (inactive)

// Input: NCC(=O)NC1(c2cc3ccccc3s2)CCCCC1 . Output its GI50 only.
19.7 µM (inactive)

// Input: CO[C@H]1C=C[C@]23c4cc5c(cc4CN(CC2O)[C@@H]3C1)OCO5 (some centres undefined) . Output its GI50 only.
2.18 µM (inactive)

// Input: CCCCc1c2c(nc3c1CCC/C3=C\c1ccccc1)C(=O)C(CN(C)C)CC2 (centres undefined) . Output its GI50 only.
20.3 µM (inactive)

// Input: CC(C)(C)[Si](C)(C)OCC1C=CC(n2cnc3c(N)ncnc32)O1 (centres undefined) . Output its GI50 only.
44.5 µM (inactive)

// Input: Nc1ccc(C(=O)O)cc1.Nc1nc(N)c2nc[nH]c2n1 . Output its GI50 only.
11.1 µM (inactive)

// Input: N/C(=N\NC(=O)c1nc2ccccc2s1)c1ccccn1 . Output its GI50 only.
3.95 µM (inactive)

// Input: Cn1cc(-c2n[nH]c(-c3ccc(Cl)cc3)nc2=O)c2ccccc21 . Output its GI50 only.
1.73 µM (inactive)

// Input: Cc1ccc2c3c1O[C@H]1c4[nH]c5ccccc5c4C[C@@]4(O)[C@@H](C2)N(C)CC[C@]314 . Output its GI50 only.
16.6 µM (inactive)

// Input: CN(C)CC/C(=N\Nc1ccc([N+](=O)[O-])cc1)c1ccccc1 . Output its GI50 only.
12.9 µM (inactive)

// Input: C=CCc1cc(OC)c2c(c1)C(O)CC(c1ccc(OC)c(OC)c1)O2 (centres undefined) . Output its GI50 only.
> 100 µM (inactive)

// Input: COc1ccc2c(n1)Sc1nc3ccccc3nc1N2 . Output its GI50 only.
7.16 µM (inactive)

// Input: Cc1ccc(-c2cn3c(nc4ccccc43)c(C)n2)cc1 . Output its GI50 only.
23.5 µM (inactive)

// Input: COC1=CC(c2ccc(Br)[nH]2)=N/C1=C/NCC(C)C . Output its GI50 only.
1.98 µM (inactive)

// Input: O=C1c2c(Br)sc(Br)c2[C@@H](Cl)[C@H]1Cl . Output its GI50 only.
18.2 µM (inactive)

// Input: O=C(O)C1C2C=CC(O2)C1C(=O)Nc1ncccn1 (centres undefined) . Output its GI50 only.
> 100 µM (inactive)

// Input: CCOC(=O)c1ccc(N2C(=S)N(C(=O)c3ccccc3)C(=N/c3ccccc3)/C2=N\c2ccccc2)cc1 . Output its GI50 only.
29.6 µM (inactive)

// Input: COc1cc(CC(=O)O)c([N+](=O)[O-])cc1OC . Output its GI50 only.
> 100 µM (inactive)

// Input: N#Cc1nc(C#N)c(NC(=O)c2ccccc2C(=O)O)[nH]1 . Output its GI50 only.
> 100 µM (inactive)

// Input: COc1ccc(/C=C/c2sc3ccccc3[n+]2CCCCI)cc1OC . Output its GI50 only.
6.32 µM (inactive)

// Input: O=C1C2=C(C(c3ccccc3)=C1c1ccccc1)c1ccccc1C1(c3ccccc3)C2=C(O)C(c2ccccc2)=C1c1ccccc1 (centres undefined) . Output its GI50 only.
> 100 µM (inactive)

// Input: O=C1N[C@@H]2O[C@H](CNC(=O)c3cc(Br)c[nH]3)C[C@]2(O)N1.O=C1N[C@H]2O[C@H](CNC(=O)c3cc(Br)c[nH]3)C[C@@]2(O)N1 . Output its GI50 only.
> 100 µM (inactive)

// Input: CCOc1cc(NC(C)=O)ccc1C(=O)NN1C(=O)C(Oc2ccccc2)C1c1ccccc1 (centres undefined) . Output its GI50 only.
45 µM (inactive)

// Input: Cn1c(=O)c2c(nc3sc4ncccc4c(=O)n32)n(C)c1=O . Output its GI50 only.
> 100 µM (inactive)

// Input: CCCC#CC(O)(C(=O)OC1CCN(C)CC1)C1CCCCC1 (centres undefined) . Output its GI50 only.
> 100 µM (inactive)
